molecular target: His-sclerostin loop2 (Limits are not printed (Table S1 not shown). Loop2 taken by convention as the cystine-knot segment Cys-Cys, mature 84-109 in mouse. The paper's mature numbering (I94..W99, with V97 specific to mouse)); assay: BLI; His-sclerostin loop2 loaded on anti-penta-HIS (HIS1K) biosensors, immersed in ApoER2-LA7 at different concentrations; settings: both partners purified
Sequence (chain, as listed by the source): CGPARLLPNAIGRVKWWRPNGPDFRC
property: pKd
Lab note — pKd values are minus log10 of concentrations in M.

Identify measured pKd associated with PCRENEFQCGDGTCVLAIKRCNQERDCPDGSDEAGCL (LDLR type A repeat 7 (LA7) of ApoER2, P290-L326; The form with D-residues at the first and last three positions was used only in vivo and is not this molecule; also called ApoER2-Pep; ApoER2 peptide tool) [ApoER2-LA7 (P290-L326)]
5.72
